tested on: B. subtilis 168; assay: Bliss interaction score (quartile over a dose matrix) (fitness difference); higher = more antagonism (negative = synergy);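 further: first quartile when negative (synergy) and third quartile when positive (antagonism)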
assay endpoint: Bliss interaction score
Simply state the number, no unit and no words.

Solved entries:
CC1(C)S[C@@H]2[C@H](NC(=O)[C@H](N)c3ccc(O)cc3)C(=O)N2[C@H]1C(=O)O [Amoxicillin] + CC[C@H]1OC(=O)[C@H](C)C(=O)[C@H](C)[C@@H](O[C@@H]2O[C@H](C)C[C@H](N(C)C)[C@H]2O)[C@](C)(OC)C[C@@H](C)C(=O)[C@H](C)[C@H]2N(CCCCn3cnc(-c4cccnc4)c3)C(=O)O[C@]12C [Telithromycin]: -0.0851
CC1(C)S[C@@H]2[C@H](NC(=O)[C@H](N)c3ccc(O)cc3)C(=O)N2[C@H]1C(=O)O [Amoxicillin] + CN(C)[C@@H]1C(O)=C(C(N)=O)C(=O)[C@@]2(O)C(O)=C3C(=O)c4c(O)ccc(Cl)c4[C@@](C)(O)[C@H]3C[C@@H]12 [Clortetracycline]: 0.164

Now for the molecule whose Bliss interaction score we want.
Req: What is its Bliss interaction score for B. subtilis 168? Entry: CCCCCCCCCC(=O)N[C@@H](Cc1c[nH]c2ccccc12)C(=O)N[C@H](CC(N)=O)C(=O)N[C@@H](CC(=O)O)C(=O)N[C@@H]1C(=O)NCC(=O)N[C@@H](CCCN)C(=O)N[C@@H](CC(=O)O)C(=O)N[C@H](C)C(=O)N[C@@H](CC(=O)O)C(=O)NCC(=O)N[C@H](CO)C(=O)N[C@@H]([C@H](C)CC(=O)O)C(=O)N[C@@H](CC(=O)c2ccccc2N)C(=O)O[C@@H]1C [Daptomycin] + CC1(C)S[C@@H]2[C@H](NC(=O)Cc3ccccc3)C(=O)N2[C@H]1C(=O)O [PenicillinG]
Resp: 0.101

====

test system: S. aureus DSM 20231; assay: Bliss interaction score (quartile over a dose matrix) (fitness difference); higher = more antagonism (negative = synergy)
Item-by-item account of Bliss interaction score

Reference set, count: 2
CCCCCCCCCC(=O)N[C@@H](Cc1c[nH]c2ccccc12)C(=O)N[C@H](CC(N)=O)C(=O)N[C@@H](CC(=O)O)C(=O)N[C@@H]1C(=O)NCC(=O)N[C@@H](CCCN)C(=O)N[C@@H](CC(=O)O)C(=O)N[C@H](C)C(=O)N[C@@H](CC(=O)O)C(=O)NCC(=O)N[C@H](CO)C(=O)N[C@@H]([C@H](C)CC(=O)O)C(=O)N[C@@H](CC(=O)c2ccccc2N)C(=O)O[C@@H]1C [Daptomycin] + CC(=O)NC[C@H]1CN(c2ccc(N3CCOCC3)c(F)c2)C(=O)O1 [Linezolid]: 0.0745
CC1(C)S[C@@H]2[C@H](NC(=O)[C@H](N)c3ccc(O)cc3)C(=O)N2[C@H]1C(=O)O [Amoxicillin] + CC1=C(C(=O)O)N2C(=O)[C@@H](NC(=O)[C@H](N)c3ccccc3)[C@H]2SC1 [Cephalexin]: 0.0743

As a next step, examine the molecule that follows.
Req: Record lookup: for S. aureus DSM 20231, what Bliss interaction score belongs to CO/N=C(\C(=O)N[C@@H]1C(=O)N2C(C(=O)[O-])=C(C[N+]3(C)CCCC3)CS[C@H]12)c1csc(N)n1 [Cefepime] + C[C@H]1COc2c(N3CCN(C)CC3)c(F)cc3c(=O)c(C(=O)O)cn1c23 [Levofloxacin] ?
Resp: 0.0646
